biological target: native human MET on living cells (human, UniProt P08581 25-1390); assay: cell-based or functional assay
Sequence (P08581 25-1390): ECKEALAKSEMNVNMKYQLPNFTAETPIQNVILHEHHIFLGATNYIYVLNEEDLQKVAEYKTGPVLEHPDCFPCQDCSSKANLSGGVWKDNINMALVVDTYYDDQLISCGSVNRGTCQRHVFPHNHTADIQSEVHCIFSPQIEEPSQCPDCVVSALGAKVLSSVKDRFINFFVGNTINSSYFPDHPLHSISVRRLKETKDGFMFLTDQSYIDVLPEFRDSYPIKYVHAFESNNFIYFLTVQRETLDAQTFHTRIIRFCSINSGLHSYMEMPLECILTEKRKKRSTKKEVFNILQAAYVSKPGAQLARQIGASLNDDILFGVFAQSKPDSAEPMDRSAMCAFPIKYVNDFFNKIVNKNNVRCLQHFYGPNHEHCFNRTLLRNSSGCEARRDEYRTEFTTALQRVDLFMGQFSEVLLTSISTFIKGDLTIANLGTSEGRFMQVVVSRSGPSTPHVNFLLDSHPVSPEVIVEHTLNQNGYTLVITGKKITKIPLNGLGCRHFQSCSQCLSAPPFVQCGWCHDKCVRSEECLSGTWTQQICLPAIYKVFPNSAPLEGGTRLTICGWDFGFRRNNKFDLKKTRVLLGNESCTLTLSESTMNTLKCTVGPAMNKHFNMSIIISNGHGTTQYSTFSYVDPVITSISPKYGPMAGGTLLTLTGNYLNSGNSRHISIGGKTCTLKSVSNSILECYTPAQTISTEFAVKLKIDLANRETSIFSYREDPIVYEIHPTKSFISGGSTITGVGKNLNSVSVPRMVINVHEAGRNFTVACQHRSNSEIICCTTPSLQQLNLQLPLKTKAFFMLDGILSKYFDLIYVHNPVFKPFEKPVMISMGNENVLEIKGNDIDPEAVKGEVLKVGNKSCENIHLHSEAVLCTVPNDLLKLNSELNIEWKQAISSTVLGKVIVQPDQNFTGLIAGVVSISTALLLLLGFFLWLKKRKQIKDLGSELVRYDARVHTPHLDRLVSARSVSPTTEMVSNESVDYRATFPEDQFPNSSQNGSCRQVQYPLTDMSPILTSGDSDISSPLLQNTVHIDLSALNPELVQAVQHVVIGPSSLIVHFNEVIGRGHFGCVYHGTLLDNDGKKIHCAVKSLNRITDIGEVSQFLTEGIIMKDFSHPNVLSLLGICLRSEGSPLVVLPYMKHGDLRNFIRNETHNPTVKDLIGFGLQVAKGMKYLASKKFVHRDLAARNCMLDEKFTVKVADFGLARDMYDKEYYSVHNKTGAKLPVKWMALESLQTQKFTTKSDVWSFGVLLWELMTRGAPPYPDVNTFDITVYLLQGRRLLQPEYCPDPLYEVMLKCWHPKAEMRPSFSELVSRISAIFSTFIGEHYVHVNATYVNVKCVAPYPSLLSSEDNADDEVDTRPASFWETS
Measure: scatter score 0-4, HPAF-II, 0.001 nM (score)
API: value field is a number in score; no unit string.

As a guide, the following entries are already answered.
Fill in: scatter score 0-4, HPAF-II, 0.001 nM of 74C8 chimeric llama-human IgG1 mAb (antibody, V domains shown, llama VH on human IgG1 CH1-CH2-CH3, llama VL on human lambda CL) VH: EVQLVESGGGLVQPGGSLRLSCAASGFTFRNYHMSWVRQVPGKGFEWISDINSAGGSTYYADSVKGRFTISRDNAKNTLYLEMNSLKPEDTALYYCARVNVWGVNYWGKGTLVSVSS VL: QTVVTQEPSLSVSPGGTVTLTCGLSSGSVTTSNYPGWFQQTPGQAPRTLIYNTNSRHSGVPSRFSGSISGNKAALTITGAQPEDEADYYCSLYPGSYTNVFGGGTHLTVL is ___ 0

# repeat for 71G12 chimeric llama-human IgG1 mAb (antibody, V domains shown, llama VH on human IgG1 CH1-CH2-CH3, llama VL on human kappa CL) VH: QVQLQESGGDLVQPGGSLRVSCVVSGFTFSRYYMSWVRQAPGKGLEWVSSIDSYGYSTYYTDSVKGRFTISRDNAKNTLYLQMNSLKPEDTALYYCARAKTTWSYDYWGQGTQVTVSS VL: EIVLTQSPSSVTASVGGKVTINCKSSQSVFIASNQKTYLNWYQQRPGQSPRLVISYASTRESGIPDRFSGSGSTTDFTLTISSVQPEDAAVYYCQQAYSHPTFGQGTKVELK 0

Continue with the next binder.
Fill in: scatter score 0-4, HPAF-II, 0.001 nM of 71G3 chimeric llama-human IgG1 mAb (antibody, V domains shown, llama VH on human IgG1 CH1-CH2-CH3, llama VL on human lambda CL) VH: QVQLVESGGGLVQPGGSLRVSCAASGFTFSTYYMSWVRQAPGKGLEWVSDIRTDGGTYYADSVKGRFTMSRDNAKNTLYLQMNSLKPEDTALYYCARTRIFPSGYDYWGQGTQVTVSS VL: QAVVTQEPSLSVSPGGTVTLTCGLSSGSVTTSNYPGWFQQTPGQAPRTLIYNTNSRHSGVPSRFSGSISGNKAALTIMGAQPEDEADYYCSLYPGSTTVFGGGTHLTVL is ___ 0
